Molecular target: Cathepsin S (Homo sapiens, UniProt P25774)
Sequence (P25774 whole entry): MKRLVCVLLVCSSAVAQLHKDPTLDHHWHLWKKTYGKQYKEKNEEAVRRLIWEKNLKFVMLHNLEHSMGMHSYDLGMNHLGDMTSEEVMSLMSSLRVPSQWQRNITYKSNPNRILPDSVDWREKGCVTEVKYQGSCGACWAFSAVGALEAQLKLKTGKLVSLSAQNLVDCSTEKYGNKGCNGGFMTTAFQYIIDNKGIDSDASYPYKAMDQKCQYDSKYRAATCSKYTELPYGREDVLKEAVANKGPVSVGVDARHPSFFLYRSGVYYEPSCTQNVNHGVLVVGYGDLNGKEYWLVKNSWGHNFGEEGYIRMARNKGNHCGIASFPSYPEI
Test: Inhibition of human cathepsin S
Entries and their pIC50
Please report pIC50 as the negative decimal logarithm of the molar concentration, giving only the number.

// worked examples, pIC50 included
structure string	study system	observation type	quantitative result
NC(=O)N1CCc2c(c(-c3ccc(Cl)c(C#Cc4ccc(CNCc5ccc(Cl)cc5)cc4)c3)nn2CCCN2CCSCC2)C1	Cathepsin S (Homo sapiens, UniProt P25774)	pIC50	7.15
C[C@@H]1COCCN1CCCn1nc(-c2ccc(Cl)c(C#Cc3ccc(CNCc4ccc(Cl)cc4)cc3)c2)c2c1CCN(C(N)=O)C2	Cathepsin S (Homo sapiens, UniProt P25774)	pIC50	6.96

We now examine a further compound.
Value of pIC50 reported for the compound NC(=O)N1CCc2c(c(-c3ccc(Cl)c(C#Cc4ccc(CNCc5ccc(Cl)cc5)cc4)c3)nn2CCCN2CCC(C(F)(F)F)CC2)C1 is 7.22

---

Biological target: Cathepsin S (Homo sapiens)
Experiment: Inhibition of cathepsin S in human JY cells assessed as invariant chain-li degradation
Type: cell-based
observation type: IC50 (nM)
Quick reminder: number only, in nM, skip the unit.

Field: example entries. Status: answers known.
compound	IC50 / nM
NC(=O)N1CCc2c(c(-c3ccc(Cl)c(C#Cc4ccc(CNCc5ccc(Cl)cc5)cc4)c3)nn2CCCN2CCC(C(F)(F)F)CC2)C1	690
NC(=O)N1CCc2c(c(-c3ccc(Cl)c(C#Cc4ccc(Cl)c(C(=O)NCC5CCCNC5)c4)c3)nn2CCCN2CCSCC2)C1 (racemic)	510

Turning now to a further compound:
Just so you know, measured IC50 for NC(=O)C(=O)N1CCc2c(c(-c3ccc(Cl)c(C#Cc4ccc(CNCc5ccc(Cl)cc5)cc4)c3)nn2CCCN2CCN(c3ccccc3)CC2)C1 came out at 560
